molecular target: T1, Taq DNA polymerase (Thermus aquaticus, UniProt P19821 1-832); assay: AMC sensor, antibody immobilised
T1 construct: also called Taq enzyme; Taq DNA enzyme
T1 sequence (P19821 whole entry): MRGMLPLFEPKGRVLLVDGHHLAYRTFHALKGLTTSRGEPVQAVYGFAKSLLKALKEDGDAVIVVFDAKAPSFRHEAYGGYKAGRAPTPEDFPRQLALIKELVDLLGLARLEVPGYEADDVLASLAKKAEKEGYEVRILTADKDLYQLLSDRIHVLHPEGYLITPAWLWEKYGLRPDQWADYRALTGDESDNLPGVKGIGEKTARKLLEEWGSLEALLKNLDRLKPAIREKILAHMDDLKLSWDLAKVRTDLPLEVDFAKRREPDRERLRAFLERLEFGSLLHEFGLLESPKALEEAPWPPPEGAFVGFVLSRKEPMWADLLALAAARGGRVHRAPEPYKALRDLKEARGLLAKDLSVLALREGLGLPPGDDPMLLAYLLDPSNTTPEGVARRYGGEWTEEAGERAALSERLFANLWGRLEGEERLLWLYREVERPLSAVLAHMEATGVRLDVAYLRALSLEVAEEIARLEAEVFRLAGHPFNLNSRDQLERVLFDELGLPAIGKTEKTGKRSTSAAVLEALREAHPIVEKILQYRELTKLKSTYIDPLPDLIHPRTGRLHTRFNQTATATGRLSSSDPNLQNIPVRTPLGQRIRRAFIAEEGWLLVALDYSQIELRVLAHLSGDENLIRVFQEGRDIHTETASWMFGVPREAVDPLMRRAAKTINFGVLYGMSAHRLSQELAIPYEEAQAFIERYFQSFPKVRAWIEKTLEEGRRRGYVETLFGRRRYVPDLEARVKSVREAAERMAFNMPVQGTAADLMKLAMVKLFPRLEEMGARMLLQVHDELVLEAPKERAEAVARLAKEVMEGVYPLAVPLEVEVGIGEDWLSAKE
As shown below, each of these binders has a reported pKd value.
// pKd here means minus log10 of the molar concentration (mol/L)

[
  {
    "binder": "Mutation 1-59 (antibody, V domains shown, Mutation 1 background; CDRs built) VH: QVQLQQPGAELVKPGASVRLSCQTSVNTFSTYYIYWVKQRPGEGLEWIGGLNPTSNPVFNEKFKSKATLTVDTSSSTAYMQLSSLTSVDSAVYYCTRSVIRRGYYFDYWGQGTALTVSS VL: DIQMTQTTSSLSASLGDRVTISCRASQDINNYINWYQQKPDGTIKLLIYYTSRLQSGLPSRFSGSGSGTDYSLTIANLEQEDIATYFCQQDDTVPLTFGAGTKVELKR",
    "parameter": "pKd",
    "experimental_value": 10.30
  }
]

API: the following record is the query input.
I have this binder here, Mutation 1-36 (antibody, V domains shown, Mutation 1 background; CDRs built) VH: QVQLQQPGAELVKPGASVRLSCQTSVETFSTYYIYWVKQRPGEGLEWIGGINPTSNPVFNEKFKSKATLTVDTSSSTAYMQLSSLTSVDSAVYYCTRSILRRGYYFDYWGQGTALTVSS VL: DIQMTQTTSSLSASLGDRVTISCRASQDIQNYVNWYQQKPDGTIKLLIYYTSRLQSGIPSRFSGSGSGTDYSLTIANLEQEDIATYFCQQDDTIPLTFGAGTKVELKR , and I need its recorded pKd. 9.11
